Sourced from patent US12545637B2

average radiation intensity, times that of SM-102 values for the compounds below.
System: female BALB/C mice
Assay: In vivo imaging in mice of Fluc-mRNA LNP formulations (mRNA expression and duration)
Settings: 24 h

// solved cases for average radiation intensity, times that of SM-102 follow
CCCCCCCCC(CCCCCCCC)COC(=O)CCCCCN(CCCO)CCN(CCCO)CCCCCC(=O)OCC(CCCCCCCC)CCCCCCCC [YK-422] ... 5.74
CCCCCCCCC(CCCCCCCC)COC(=O)CCCCCN(CCCO)CCCN(CCCO)CCCCCC(=O)OCC(CCCCCCCC)CCCCCCCC [YK-423] ... 6.13
CCCCCCCCC(CCCCCCCC)OC(=O)CCCCCCCN(CCO)CCN(CCO)CCCCCCCC(=O)OC(CCCCCCCC)CCCCCCCC [YK-403] ... 6.93

Read the entry CCCCCCCCCCCOC(=O)CCCN(CCO)CCN(CCO)CCCCCC(=O)OC(CCCCCCCC)CCCCCCCC [YK-407] and write its reported average radiation intensity, times that of SM-102.
16.34

Read the entry CCCCCCCCC(CCCCCCCC)OC(=O)CCCCCN(CCO)CCN(CCO)CCCCCC(=O)OC(CCCCCCCC)CCCCCCCC [YK-401] and write its reported average radiation intensity, times that of SM-102.
6.53

Read the entry CCCCCCCCC(CCCCCCCC)C(=O)OCCCCCCN(CCO)CCN(CCO)CCCCCCOC(=O)C(CCCCCCCC)CCCCCCCC [YK-402] and write its reported average radiation intensity, times that of SM-102.
6.47

* * *

Test: Detection of encapsulation efficiency, drug loading concentration and total RNA concentration (RiboGreen)
Type: physicochemical
Details: ratio vs compound 23
property.label: drug loading concentration, times that of compound 23
No unit in the answer, only the number.

// solved cases for drug loading concentration, times that of compound 23 follow
CCCCCCCCC(CCCCCCCC)OC(=O)CCCCCN(CCO)CCN(CCO)CCCCCC(=O)OC(CCCCCCCC)CCCCCCCC ... 1.86
CCCCCCCCCCCOC(=O)CCCN(CCO)CCN(CCO)CCCCCC(=O)OC(CCCCCCCC)CCCCCCCC ... 1.78
CCCCCCCCC(CCCCCCCC)COC(=O)CCCCCN(CCCO)CCCN(CCCO)CCCCCC(=O)OCC(CCCCCCCC)CCCCCCCC ... 1.87
CCCCCCCCC(CCCCCCCC)OC(=O)CCCCCCCN(CCO)CCN(CCO)CCCCCCCC(=O)OC(CCCCCCCC)CCCCCCCC ... 1.71
CCCCCCCCC(CCCCCCCC)C(=O)OCCCCCCN(CCO)CCN(CCO)CCCCCCOC(=O)C(CCCCCCCC)CCCCCCCC ... 1.88

Read the entry CCCCCCCCC(CCCCCCCC)COC(=O)CCCCCN(CCCO)CCN(CCCO)CCCCCC(=O)OCC(CCCCCCCC)CCCCCCCC and write its reported drug loading concentration, times that of compound 23.
2.25

* * *

System: 293T cells
Assay: Cell survival rate assay (CCK-8)
Format: cell-based
Conditions: difference vs YK-417
property.label: cell survival rate higher than YK-417 (%)
The reply should be a number in %, with the unit left off.

// solved cases for cell survival rate higher than YK-417 follow
CCCCCCCCC(CCCCCCCC)OC(=O)CCCCCCCN(CCO)CCN(CCO)CCCCCCCC(=O)OC(CCCCCCCC)CCCCCCCC ... 49.42
CCCCCCCCC(CCCCCCCC)COC(=O)CCCCCN(CCCO)CCN(CCCO)CCCCCC(=O)OCC(CCCCCCCC)CCCCCCCC ... 49.14
CCCCCCCCCCCOC(=O)CCCN(CCO)CCN(CCO)CCCCCC(=O)OC(CCCCCCCC)CCCCCCCC ... 50.03
CCCCCCCCC(CCCCCCCC)COC(=O)CCCCCN(CCCO)CCCN(CCCO)CCCCCC(=O)OCC(CCCCCCCC)CCCCCCCC ... 49.80
CCCCCCCCC(CCCCCCCC)OC(=O)CCCCCN(CCO)CCN(CCO)CCCCCC(=O)OC(CCCCCCCC)CCCCCCCC ... 53.87

Read the entry CCCCCCCCC(CCCCCCCC)C(=O)OCCCCCCN(CCO)CCN(CCO)CCCCCCOC(=O)C(CCCCCCCC)CCCCCCCC and write its reported cell survival rate higher than YK-417.
51.36
